experiment: total protein half-life in vivo (active degradation + dilution); higher = more stable protein; settings: E. coli NCM3722 delta-clpP; growth: N-lim chemostat; doubling time 6 h
In this section we review reported total protein half-life in vivo values for a set of sequences.
Write the value in h as a bare number.

SEQUENCE RECORD	VALUE UNIT	total protein half-life in vivo
MSITLSDSAAARVNTFLANRGKGFGLRLGVRTSGCSGMAYVLEFVDEPTPEDIVFEDKGVKVVVDGKSLQFLDGTQLDFVKEGLNEGFKFTNPNVKDECGCGESFHV [P0AAC8]	h	2.47

Entry MTSLVSLENVSVSFGQRRVLSDVSLELKPGKILTLLGPNGAGKSTLVRVVLGLVTPDEGVIKRNGKLRIGYVPQKLYLDTTLPLTVNRFLRLRPGTHKEDILPALKRVQAGHLINAPMQKLSGGETQRVLLARALLNRPQLLVLDEPTQGVDVNGQVALYDLIDQLRRELDCGVLMVSHDLHLVMAKTDEVLCLNHHICCSGTPEVVSLHPEFISMFGPRGAEQLGIYRHHHNHRHDLQGRIVLRRGNDRS [P0A9X1] , total protein half-life in vivo reported as 5.12

Entry MQNTTHDNVILELTVRNHPGVMTHVCGLFARRAFNVEGILCLPIQDSDKSHIWLLVNDDQRLEQMISQIDKLEDVVKVQRNQSDPTMFNKIAVFFQ [P0ADF8] , total protein half-life in vivo reported as 1.6

Entry MILTDPEWQAVLLSLKVSSLAVLFSLPFGIFFAWLLVRCTFPGKALLDSVLHLPLVLPPVVVGYLLLVSMGRRGFIGERLYDWFGITFAFSWRGAVLAAAVMSFPLMVRAIRLALEGVDVKLEQAARTLGAGRWRVFFTITLPLTLPGIIVGTVLAFARSLGEFGATITFVSNIPGETRTIPSAMYTLIQTPGGESGAARLCIISIALAMISLLISEWLARISRERAGR [P0AF01] , total protein half-life in vivo reported as 6.15

These measurements were taken from the supplement of paper PMC11246515.
